test: TIMS collisional cross section (CCS, N2) of the lipid ion; higher = larger ion cross section; settings: sample type: HeLa; ionization mode: positive; one isomer drawn
Could you please report measured TIMS collisional cross section for the items listed next?
Give the figure together with its unit, number first.

# batch size: 4; output TIMS collisional cross section per entry
1. CCCCCC/C=C\CCCCCCCC(=O)O[C@H](CO/C=C\CCCCCCCCCCCCCCCC)COP(=O)([O-])OCC[N+](C)(C)C [PC P- 18:0@_16:1] (ion (formula + adduct): [C42H82NO7P+H] 1+)
2. CC/C=C\C/C=C\C/C=C\C/C=C\C/C=C\CCCCCC(=O)OC[C@@H](COC(=O)CCCCCCC/C=C\CCCCCC)OC(=O)CCC/C=C\C/C=C\C/C=C\C/C=C\CCCCC [TG 16:1_20:4_22:5] (ion (formula + adduct): [C61H98O6+NH4] 1+)
3. CC/C=C\C/C=C\C/C=C\C/C=C\C/C=C\C/C=C\CCC(=O)OC[C@@H](COC(=O)CCCCCCCCCCCCCCC)OC(=O)CCCCCCC/C=C\CCCCCC [TG 16:0_16:1_22:6] (ion (formula + adduct): [C57H96O6+NH4] 1+)
4. CCCCC/C=C\C/C=C\CCCCCCCC(=O)O[C@H](COC(=O)CCCCCCC/C=C\CCCCCCCC)COC(=O)CCCCCCC/C=C\CCCCCCCCC [TG 18:1_18:2_19:1] (ion (formula + adduct): [C58H104O6+NH4] 1+)

1: 288.6 Å²; 2: 328.2 Å²; 3: 321.4 Å²; 4: 327.7 Å²

* * *

assay: TIMS collisional cross section (CCS, N2) of the lipid ion; higher = larger ion cross section; details: sample type: Liver; ionization mode: positive; one isomer drawn
measurement.name: TIMS collisional cross section

CCCCC/C=C\C/C=C\C/C=C\C/C=C\CCCCCC(=O)OC[C@@H](COC(=O)CCCCCCCCCCCCCCC)OC(=O)CCCCCCC/C=C\C/C=C\CCCCC [TG 16:0_18:2_22:4] (ion (formula + adduct): [C59H102O6+NH4] 1+) = 328 Å²

Please report TIMS collisional cross section for the following compound: CCCCC/C=C\C/C=C\CCCCCCCCCC(=O)O[C@H](COC(=O)CCCCCCC/C=C\CCCCCCCC)COP(=O)(O)OCCN [PE 18:1@_20:2] (ion (formula + adduct): [C43H80NO8P+H] 1+)
283.3 Å²

* * *

test: TIMS collisional cross section (CCS, N2) of the lipid ion; higher = larger ion cross section; details: sample type: HeLa; ionization mode: positive; one isomer drawn
measurement.name: TIMS collisional cross section (Å²)
Answers are plain numbers, in Å².

CC/C=C\C/C=C\C/C=C\C/C=C\C/C=C\C/C=C\CCC(=O)OC[C@@H](COC(=O)CCCCCCC/C=C\CCCCCC)OC(=O)CCCCCCC/C=C\CCCCCC [TG 16:1_16:1_22:6] (ion (formula + adduct): [C57H94O6+NH4] 1+) = 318.5
CCCCCCCC/C=C\CCCCCCCC(=O)O[C@@H](COC(=O)CCCCCCC/C=C\CCCCCCCCC)COC(=O)CCCCCCCCCCCCCCC [TG 16:0_18:1_19:1] (ion (formula + adduct): [C56H104O6+NH4] 1+) = 325.5
CCCCCCCCCC/C=C\CCCCCCCCCC(=O)OC[C@@H](O)COP(=O)([O-])OCC[N+](C)(C)C [LPC 22:1_0:0] (ion (formula + adduct): [C30H60NO7P+H] 1+) = 246.1

Retrieve TIMS collisional cross section measured for CCCCCCCCCCCCCC/C=C\OC[C@H](COP(=O)([O-])OCC[N+](C)(C)C)OC(=O)CCCCCCCCCCCCCCC [PC P- 16:0_16:0] (ion (formula + adduct): [C40H80NO7P+H] 1+) and print it.
284.4

* * *

test: TIMS collisional cross section (CCS, N2) of the lipid ion; higher = larger ion cross section; settings: sample type: plasma; ionization mode: positive; one isomer drawn
measurement.name: TIMS collisional cross section (Å²)
Numbers only, in Å².

I would be grateful if you could provide TIMS collisional cross section for each of the following entries.
1. CCCCC/C=C\C/C=C\CCCCCCCC(=O)O[C@H](COC(=O)CCCCCCCCCCCCCCCCC)COP(=O)(O)OCCN [PE 18:0_18:2] (ion (formula + adduct): [C41H78NO8P+H] 1+)
2. CCCCC/C=C\C/C=C\C/C=C\C/C=C\C/C=C\CCC(=O)O[C@H](COC(=O)CCCCCCCCCCCCCCC)COP(=O)([O-])OCC[N+](C)(C)C [PC 16:0_22:5] (ion (formula + adduct): [C46H82NO8P+H] 1+)
3. CC/C=C\C/C=C\C/C=C\C/C=C\C/C=C\CCCC(=O)OC[C@@H](COC(=O)CCCCCCCCCCCCCCC)OC(=O)CCCCCCC/C=C\C/C=C\CCCCC [TG 16:0_18:2_20:5] (ion (formula + adduct): [C57H96O6+NH4] 1+)
4. CCCCCCCC/C=C\CCCCCCCCCCCC(=O)N[C@@H](COP(=O)([O-])OCC[N+](C)(C)C)[C@H](O)/C=C/CCCCCCCCCCCCC [SM d18:1_22:1@] (ion (formula + adduct): [C45H89N2O6P+H] 1+)

1: 279.8; 2: 293.3; 3: 319.9; 4: 299

* * *

assay: TIMS collisional cross section (CCS, N2) of the lipid ion; higher = larger ion cross section; details: sample type: HeLa; ionization mode: positive; one isomer drawn
For each of the molecules below, state its TIMS collisional cross section.
One number for each entry, in Å².

CC/C=C\C/C=C\C/C=C\C/C=C\C/C=C\CCCCCC(=O)OC[C@@H](COC(=O)CCCCCCCCCCCCCCC)OC(=O)CCCCCCC/C=C\CCCCCC [TG 16:0_16:1_22:5] (ion (formula + adduct): [C57H98O6+NH4] 1+) = 321.9
CCCCCC/C=C\CCCCCCCC(=O)OC[C@H](COP(=O)([O-])OCC[N+](C)(C)C)OC(=O)CCCCCCC/C=C\CCCCCCC [PC 16:1_17:1] (ion (formula + adduct): [C41H78NO8P+H] 1+) = 281.9
CCCCCCCCCCCCCCCCCC(=O)OC[C@@H](COC(=O)CCCCCCCCCCCCCCC)OC(=O)CCCCCCCCCCCCCCCC [TG 16:0_17:0_18:0] (ion (formula + adduct): [C54H104O6+NH4] 1+) = 323.3
CCCCCC/C=C\CCCCCCCC(=O)OC[C@@H](COC(=O)CCCCCCCCCCC)OC(=O)CCCCCCCCCCCCC [TG 12:0_14:0_16:1] (ion (formula + adduct): [C45H84O6+NH4] 1+) = 292.8
CCCCCCC/C=C\CCCCCCCC(=O)O[C@H](COC(=O)CCCCCCCCCCCCCCC)COP(=O)([O-])OCC[N+](C)(C)C [PC 16:0_17:1] (ion (formula + adduct): [C41H80NO8P+H] 1+) = 285.8

Each of the following entries comes with a recorded value; kindly state TIMS collisional cross section for each.
1. CCCCCCCCCCCCCCC(=O)OC[C@@H](COC(=O)CCCCCCCCCCC)OC(=O)CCCCCCCCCCCCC [TG 12:0_14:0_15:0] (ion (formula + adduct): [C44H84O6+NH4] 1+)
2. CC/C=C\C/C=C\C/C=C\C/C=C\C/C=C\C/C=C\CCC(=O)O[C@H](COCCCCCCCCCCCCCCCC)COP(=O)(O)OCCN [PE O- 16:0@_22:6] (ion (formula + adduct): [C43H76NO7P+H] 1+)

1: 291.9; 2: 279.6

Hi, could you look up TIMS collisional cross section for each item in my list?
1. CCCCCCCCCCCCCCCCCCCCCC(=O)OC[C@@H](O)COP(=O)(O)OCCN [LPE 22:0] (ion (formula + adduct): [C27H56NO7P+H] 1+)
2. CCCCCC/C=C/CCCCCCCC(=O)OC[C@@H](O)COP(=O)([O-])OCC[N+](C)(C)C [LPC 16:1] (ion (formula + adduct): [C24H48NO7P+H] 1+)
3. CCCCCCCC/C=C\CCCCCCCCCC(=O)O[C@H](COC(=O)CCCCCCC/C=C\CCCCCCCC)COP(=O)(O)OCCN [PE 18:1@_20:1] (ion (formula + adduct): [C43H82NO8P+H] 1+)

[236.4, 226, 286.2]

* * *

assay: TIMS collisional cross section (CCS, N2) of the lipid ion; higher = larger ion cross section; settings: sample type: HeLa; ionization mode: positive; one isomer drawn
measurement.name: TIMS collisional cross section (Å²)
One number for each entry, in Å².

Here are 5 compounds together with their reported answers.
CCCCCC/C=C\CCCCCCCC(=O)OC[C@H](CO)OC(=O)CCCCCCC/C=C\CCCCCC [DG 16:1_16:1_0:0] (ion (formula + adduct): [C35H64O5+NH4] 1+) = 249
CCCC/C=C\CCCCCCCC(=O)OC[C@H](COC(=O)CCCCCCCCCCCCCCCCC)OC(=O)CCCCCCC/C=C\CCCCCC [TG 14:1_16:1_18:0] (ion (formula + adduct): [C51H94O6+NH4] 1+) = 309.6
CCCCC/C=C\C/C=C\C/C=C\C/C=C\CCCC(=O)O[C@@H](CO)COC(=O)CCCCCCCCCCCCCCCCC [DG 18:0_20:4_0:0] (ion (formula + adduct): [C41H72O5+NH4] 1+) = 270.8
CCCC/C=C\CCCCCCCC(=O)O[C@@H](COC(=O)CCCCCCC/C=C\CCCCCC)COC(=O)CCCCCCCCCCC [TG 12:0_14:1_16:1] (ion (formula + adduct): [C45H82O6+NH4] 1+) = 290.3
CCCCCCCCCCCCCCCC(=O)OC[C@@H](COC(=O)CCCCCCCCCCC)OC(=O)CCCCCCCCCCC [TG 12:0_12:0_16:0] (ion (formula + adduct): [C43H82O6+NH4] 1+) = 288

For every listed record, write down its TIMS collisional cross section.
1. CCCCCC/C=C\CCCCCCCC(=O)OC[C@@H](COC(=O)CCCCCCCCCCCC)OC(=O)CCCCCCCCCCCCC [TG 13:0_14:0_16:1] (ion (formula + adduct): [C46H86O6+NH4] 1+)
2. CCCCCC/C=C\CCCCCCCC(=O)OC[C@@H](COC(=O)CCCCCCCCCCCCC)OC(=O)CCCCCCC/C=C\CCCCCC [TG 14:0_16:1_16:1] (ion (formula + adduct): [C49H90O6+NH4] 1+)

296.4
302.9

From: the supplement of paper PMC6965134
